target.desc: T1, GDF-11 (UniProt O95390 299-407)
T1 construct: also called Growth and Differentiation Factor-11; BMP11
T1 sequence (looked up): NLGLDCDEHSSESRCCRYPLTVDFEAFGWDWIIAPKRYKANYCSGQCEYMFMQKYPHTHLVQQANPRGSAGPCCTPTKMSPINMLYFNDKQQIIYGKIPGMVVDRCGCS
protocol.text: BiaCore (SPR); ligand amine-coupled to CM5 chip, ActRIIB-Fc injected
Procedure: GDF-11 or Activin A (“ActA”) were immobilized on a BiaCore CM5 chip using standard amine coupling procedure. The ActRIIB-Fc mutant or wild-type protein was loaded onto the system, and binding was measured.
pKd: −log10 of the molar value.
quantity.name: pKd

binder	recorded.number
background ActRIIB-Fc fusion, WT (64A) (Fc fusion, Made in HEK293T or CHO cells and purified on protein A; also called wild-type (background A64) ActRIIB-Fc; background A64 construct) SGRGEAETRECIYYNANWELERTNQSGLERCEGEQDKRLHCYASWANSSGTIELVKKGCWLDDFNCYDRQECVATEENPQVYFCCCEGNFCNERFTHLPEAGGGTHTCPPCPAPELLGGPSVFLFPPKPKDTLMISRTPEVTCVVVDVSHEDPEVKFNWYVDGVEVHNAKTKPREEQYNSTYRVVSVLTVLHQDWLNGKEYKCKVSNKALPVPIEKTISKAKGQPREPQVYTLPPSREEMTKNQVSLTCLVKGFYPSDIAVEWESNGQPENNYKTTPPVLDSDGSFFLYSKLTVDKSRWQQGNVFSCSVMHEALHNHYTQKSLSLSPGK	6.59
